system: human apolipoprotein B mRNA; test: Inhibition of human apolipoprotein B mRNA levels in HepG2 cells, quantitative real-time PCR; assay type: cell-based; settings: Table 1; HepG2 cells, 150 nM; averages from two experiments
In the oligonucleotide strings, read from the 5' end, every base follows the letter of its sugar. An asterisk marks phosphorothioate; unmarked linkages are phosphodiester. Other units and linkages are bracketed, terminal groups are in braces. A string of capitals states the bases alone. e = 2'-O-(2-methoxyethyl) (MOE); [5mC] = 5-methylcytosine; d = 2'-deoxy (DNA)
experimentalEndpoint: % INHIB

Inquiry: Quote % INHIB reported for 147827 (antisense e[5mC]*eT*eA*eA*eT*dG*dG*d[5mC]*d[5mC]*d[5mC]*d[5mC]*dT*dT*dG*dA*eT*eA*eA*eA*e[5mC]) [compound 147827] please.
Reply text: 13%

Inquiry: Find the measured % INHIB of 147796 (antisense eG*e[5mC]*eA*eG*e[5mC]*d[5mC]*dA*dG*dT*d[5mC]*dG*d[5mC]*dT*dT*dA*eT*e[5mC]*eT*e[5mC]*e[5mC]) [compound 147796] and report it.
Reply text: 8%

Inquiry: Complete the entry with % INHIB for 147831 (antisense e[5mC]*eT*eG*e[5mC]*e[5mC]*dT*dA*d[5mC]*dT*dG*d[5mC]*dA*dA*dG*dG*e[5mC]*eT*eG*eG*e[5mC]) [compound 147831]
Reply text: 0%

###

Please go through the items and note down their % INHIB.
tested on: human apolipoprotein B mRNA; assay: Inhibition of human apolipoprotein B mRNA levels in HepG2 cells, quantitative real-time PCR; assay type: cell-based; conditions: HepG2 cells; human apolipoprotein B mRNA; oligonucleotides targeting genomic sequence SEQ ID NO 334; averages from two experiments
In the oligonucleotide strings, read from the 5' end, every base follows the letter of its sugar. An asterisk marks phosphorothioate; unmarked linkages are phosphodiester. Other units and linkages are bracketed, terminal groups are in braces. A string of capitals states the bases alone. e = 2'-O-(2-methoxyethyl) (MOE); [5mC] = 5-methylcytosine; d = 2'-deoxy (DNA)

Inquiry: Give recorded % INHIB. 301095 (antisense e[5mC]*eA*eA*eG*eG*dA*dA*dG*d[5mC]*dA*d[5mC]*dA*d[5mC]*d[5mC]*dA*eT*eG*eT*e[5mC]*eA) [compound 301095]
Reply text: 38%

Inquiry: Annotate the substance 301209 (antisense eA*eT*eA*eA*eA*dT*dA*dA*dT*dA*dG*dT*dG*d[5mC]*dT*eG*eA*eT*eG*eG) [compound 301209] with its measured % INHIB.
Reply text: 39%

Inquiry: State its % INHIB for this substance: 301123 (eG*eA*eT*eG*eT*dA*dT*dG*dT*d[5mC]*dA*dT*dA*dT*dA*eA*eA*eA*eG*eA; antisense) [compound 301123]
Reply text: 26%

Inquiry: Return the recorded % INHIB value; entry: 301151 (e[5mC]*e[5mC]*eT*e[5mC]*eT*d[5mC]*d[5mC]*dA*dA*dT*d[5mC]*dT*dG*dT*dA*eG*eA*e[5mC]*e[5mC]*e[5mC]; antisense) [compound 301151]
Reply text: 28%

Inquiry: Write down % INHIB measured for item 301136 (e[5mC]*eT*eT*e[5mC]*eA*d[5mC]*dA*dA*dA*dT*dA*d[5mC]*dA*d[5mC]*dA*e[5mC]*e[5mC]*eT*eG*e[5mC]; antisense) [compound 301136]
Reply text: 20%

Inquiry: Please give the documented % INHIB of 301085 (antisense eT*eG*eG*eG*eA*d[5mC]*dT*dT*dA*d[5mC]*d[5mC]*dA*dT*dG*d[5mC]*e[5mC]*eT*eT*eT*eG) [compound 301085]
Reply text: 11%

Inquiry: Return reported % INHIB. Input substance: 301071 (e[5mC]*eA*e[5mC]*eT*eT*dG*dT*dT*dG*dG*dA*d[5mC]*dA*dG*dT*e[5mC]*eA*eT*eT*e[5mC]; antisense) [compound 301071]
Reply text: 48%

Inquiry: Input 301114 (antisense eT*eG*e[5mC]*eA*e[5mC]*dA*dG*dA*dG*dG*dT*dG*d[5mC]*dA*dA*eG*eA*eT*eG*eT) [compound 301114] , output reported % INHIB.
Reply text: 16%

Inquiry: Answer with reported % INHIB of 301182 (antisense e[5mC]*e[5mC]*eA*eA*e[5mC]*dT*d[5mC]*d[5mC]*d[5mC]*d[5mC]*d[5mC]*dT*dT*dT*d[5mC]*eT*eT*eT*eG*eT) [compound 301182]
Reply text: 37%

Inquiry: Identify % INHIB associated with the substance 301083 (antisense eA*eG*eA*eA*eG*dA*dT*dG*d[5mC]*dA*dA*d[5mC]*d[5mC]*dA*d[5mC]*eA*eT*eG*eT*eA) [compound 301083]
Reply text: 29%

Inquiry: Supply reported % INHIB belonging to this substance: 301201 (antisense eA*eA*eA*eA*eT*d[5mC]*d[5mC]*dA*dT*dT*dT*dT*d[5mC]*dT*dT*eT*eA*eA*eA*eG) [compound 301201]
Reply text: 12%

Inquiry: Give % INHIB for the following substance: 301157 (eG*e[5mC]*e[5mC]*eT*eG*dG*d[5mC]*dA*dA*dA*dA*dT*dT*d[5mC]*dT*eG*e[5mC]*eA*eG*eG; antisense) [compound 301157]
Reply text: 37%

Inquiry: State its % INHIB: 301194 (antisense eG*eT*eT*e[5mC]*eT*d[5mC]*dA*dT*dG*dT*dT*dT*dA*d[5mC]*dT*eA*eA*eT*eG*e[5mC]) [compound 301194]
Reply text: 40%

Inquiry: Kindly indicate its recorded % INHIB. Item: 301169 (antisense eA*e[5mC]*e[5mC]*eT*e[5mC]*d[5mC]*d[5mC]*dA*dG*dA*dA*dG*d[5mC]*d[5mC]*dT*eT*e[5mC]*e[5mC]*eA*eT) [compound 301169]
Reply text: 22%

Inquiry: Provide measured % INHIB value, entry: 301188 (antisense eA*eA*e[5mC]*eT*eT*d[5mC]*dT*dA*dA*dA*dG*d[5mC]*d[5mC]*dA*dA*e[5mC]*eA*eT*eT*e[5mC]) [compound 301188]
Reply text: 27%

Inquiry: Output measured % INHIB for this item: 301186 (antisense e[5mC]*e[5mC]*eT*eT*e[5mC]*dT*dT*dT*dA*d[5mC]*d[5mC]*dT*dT*dA*dG*eG*eT*eG*eG*e[5mC]) [compound 301186]
Reply text: 37%

Inquiry: Identify % INHIB associated with the substance 301153 (eA*eG*eT*e[5mC]*eA*dG*dA*dA*dA*dA*d[5mC]*dA*dA*d[5mC]*d[5mC]*eT*eA*eT*eT*e[5mC]; antisense) [compound 301153]
Reply text: 11%

Inquiry: Item 301205 (antisense e[5mC]*eA*eA*eT*eT*d[5mC]*dA*dA*dT*dA*dA*dA*dA*dG*d[5mC]*eT*e[5mC]*e[5mC]*eA*eT) [compound 301205] : provide % INHIB
Reply text: 31%

Inquiry: Name the recorded % INHIB of the item 301118 (antisense eA*eT*eG*eT*eG*d[5mC]*dA*d[5mC]*dA*d[5mC]*dA*dA*dG*dG*dA*e[5mC]*eA*eT*eA*eG) [compound 301118] in your answer.
Reply text: 33%

Inquiry: Answer with the recorded % INHIB of 301161 (eA*eT*eG*e[5mC]*eA*dT*dT*d[5mC]*d[5mC]*d[5mC]*dT*dG*dA*d[5mC]*dT*eA*eG*e[5mC]*eA*e[5mC]; antisense) [compound 301161] only.
Reply text: 34%

Inquiry: Look up and state reported % INHIB for 301102 (antisense eT*e[5mC]*e[5mC]*eA*eG*dA*d[5mC]*dT*dT*dG*dT*d[5mC]*dT*dG*dA*eG*eT*e[5mC]*eT*eA) [compound 301102]
Reply text: 47%

Inquiry: Determine its reported % INHIB: 301184 (antisense eT*eA*eT*eT*eG*dT*dG*dT*dG*d[5mC]*dT*dG*dG*dG*d[5mC]*eA*e[5mC]*eT*eG*e[5mC]) [compound 301184]
Reply text: 52%

###

test system: human apolipoprotein B mRNA; assay: Inhibition of human apolipoprotein B mRNA levels in HepG2 cells, quantitative real-time PCR; type: cell-based; details: Table 17 variable gap; HepG2 cells, 150 nM; averages from three experiments
Exercise: for every item that follows, state its recorded % INHIB 150 nm.
Reply with just the number (in %).

Inquiry: Supply recorded % INHIB 150 nm for 308648 (antisense GCCTCAGTCTGCTTCGCGCC; 6-10-4 2'-MOE gapmer, phosphorothioate, chemistry not fully specified) [compound 308648] here.
Reply text: 89

Inquiry: Retrieve % INHIB 150 nm measured for 308663 (antisense AGTCTGCTTCGCGCCTTCTG; 8-10-2 2'-MOE gapmer, phosphorothioate, chemistry not fully specified) [compound 308663] and print it.
Reply text: 84

Inquiry: Tell me % INHIB 150 nm reported for 308654 (antisense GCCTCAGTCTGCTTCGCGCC; 8-10-2 2'-MOE gapmer, phosphorothioate, chemistry not fully specified) [compound 308654]
Reply text: 90

Inquiry: Return % INHIB 150 nm for the following substance: 308639 (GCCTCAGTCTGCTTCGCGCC; all C 5-methyl, all phosphorothioate, sugars by position not given here; further chemistry not fully specified) [compound 308639]
Reply text: 94

Inquiry: Please list % INHIB 150 nm recorded for the substance 308645 (antisense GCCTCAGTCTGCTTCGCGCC; 4-10-6 2'-MOE gapmer, phosphorothioate, chemistry not fully specified) [compound 308645]
Reply text: 98

Inquiry: Hello, please tell me recorded % INHIB 150 nm for this one: 308633 (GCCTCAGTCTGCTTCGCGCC; 10-10-0 MOE gapmer, phosphorothioate, chemistry not fully specified) [compound 308633]
Reply text: 83

Inquiry: Answer with the recorded % INHIB 150 nm for the substance listed here: 308657 (antisense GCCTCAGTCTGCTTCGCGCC; 9-10-1 2'-MOE gapmer, phosphorothioate, chemistry not fully specified) [compound 308657]
Reply text: 78
